test.system: EGFR (L858R) (Homo sapiens, UniProt P00533, L858R)
Sequence (P00533 25-1210 L858R): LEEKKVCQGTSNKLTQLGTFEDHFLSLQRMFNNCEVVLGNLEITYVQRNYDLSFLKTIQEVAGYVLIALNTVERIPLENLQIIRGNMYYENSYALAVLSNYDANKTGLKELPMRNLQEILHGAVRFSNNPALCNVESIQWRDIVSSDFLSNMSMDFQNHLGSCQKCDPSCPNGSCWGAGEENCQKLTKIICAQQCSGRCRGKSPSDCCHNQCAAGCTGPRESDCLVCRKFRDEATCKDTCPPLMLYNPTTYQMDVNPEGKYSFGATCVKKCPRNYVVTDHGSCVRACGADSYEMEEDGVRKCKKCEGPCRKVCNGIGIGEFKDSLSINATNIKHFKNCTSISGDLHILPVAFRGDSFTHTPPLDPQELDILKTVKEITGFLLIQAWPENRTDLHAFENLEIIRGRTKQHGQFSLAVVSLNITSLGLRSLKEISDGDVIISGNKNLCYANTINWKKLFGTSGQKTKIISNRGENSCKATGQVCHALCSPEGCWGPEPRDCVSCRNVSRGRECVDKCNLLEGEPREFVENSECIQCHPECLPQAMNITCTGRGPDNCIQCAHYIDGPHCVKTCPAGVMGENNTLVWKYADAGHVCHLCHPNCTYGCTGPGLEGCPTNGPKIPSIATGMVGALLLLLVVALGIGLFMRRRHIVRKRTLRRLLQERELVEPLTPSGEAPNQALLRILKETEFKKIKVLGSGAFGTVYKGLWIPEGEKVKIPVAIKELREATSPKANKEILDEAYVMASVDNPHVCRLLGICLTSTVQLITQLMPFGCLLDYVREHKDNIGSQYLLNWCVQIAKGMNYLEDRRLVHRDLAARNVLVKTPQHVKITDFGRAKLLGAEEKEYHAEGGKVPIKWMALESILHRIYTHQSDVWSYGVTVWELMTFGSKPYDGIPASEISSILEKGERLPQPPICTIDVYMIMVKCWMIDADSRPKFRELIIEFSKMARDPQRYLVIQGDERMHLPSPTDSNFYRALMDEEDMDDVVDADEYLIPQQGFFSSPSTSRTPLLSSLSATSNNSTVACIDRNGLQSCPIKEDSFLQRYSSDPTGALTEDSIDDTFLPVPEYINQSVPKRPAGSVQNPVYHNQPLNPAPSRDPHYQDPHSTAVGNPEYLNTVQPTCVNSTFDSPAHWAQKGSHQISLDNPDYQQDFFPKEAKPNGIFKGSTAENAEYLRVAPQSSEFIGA
protocol.details: Binding of mutant-EGFR (phage-displayed kinase competition binding)
# Kd listing for each entry below

Known results for molecules:
{"smiles": "Clc1ccc(Sc2ncnc3c2[nH]c2ccccc23)cc1Cl", "Kd": "< 100 nM"}
{"smiles": "Oc1ccc(-c2cc3c(Oc4cccc(Br)c4)ncnc3[nH]2)cc1", "Kd": "< 100 nM"}

Next item in the queue.
Input: Bench note: what Kd did "Oc1ccc(-c2cc3c(Sc4ccccc4)ncnc3[nH]2)cc1" show?
Output: < 100 nM

----------
Kd: recorded values
test.system: EGFR (G719C) (Homo sapiens, UniProt P00533, G719C)
Sequence (P00533 25-1210 G719C): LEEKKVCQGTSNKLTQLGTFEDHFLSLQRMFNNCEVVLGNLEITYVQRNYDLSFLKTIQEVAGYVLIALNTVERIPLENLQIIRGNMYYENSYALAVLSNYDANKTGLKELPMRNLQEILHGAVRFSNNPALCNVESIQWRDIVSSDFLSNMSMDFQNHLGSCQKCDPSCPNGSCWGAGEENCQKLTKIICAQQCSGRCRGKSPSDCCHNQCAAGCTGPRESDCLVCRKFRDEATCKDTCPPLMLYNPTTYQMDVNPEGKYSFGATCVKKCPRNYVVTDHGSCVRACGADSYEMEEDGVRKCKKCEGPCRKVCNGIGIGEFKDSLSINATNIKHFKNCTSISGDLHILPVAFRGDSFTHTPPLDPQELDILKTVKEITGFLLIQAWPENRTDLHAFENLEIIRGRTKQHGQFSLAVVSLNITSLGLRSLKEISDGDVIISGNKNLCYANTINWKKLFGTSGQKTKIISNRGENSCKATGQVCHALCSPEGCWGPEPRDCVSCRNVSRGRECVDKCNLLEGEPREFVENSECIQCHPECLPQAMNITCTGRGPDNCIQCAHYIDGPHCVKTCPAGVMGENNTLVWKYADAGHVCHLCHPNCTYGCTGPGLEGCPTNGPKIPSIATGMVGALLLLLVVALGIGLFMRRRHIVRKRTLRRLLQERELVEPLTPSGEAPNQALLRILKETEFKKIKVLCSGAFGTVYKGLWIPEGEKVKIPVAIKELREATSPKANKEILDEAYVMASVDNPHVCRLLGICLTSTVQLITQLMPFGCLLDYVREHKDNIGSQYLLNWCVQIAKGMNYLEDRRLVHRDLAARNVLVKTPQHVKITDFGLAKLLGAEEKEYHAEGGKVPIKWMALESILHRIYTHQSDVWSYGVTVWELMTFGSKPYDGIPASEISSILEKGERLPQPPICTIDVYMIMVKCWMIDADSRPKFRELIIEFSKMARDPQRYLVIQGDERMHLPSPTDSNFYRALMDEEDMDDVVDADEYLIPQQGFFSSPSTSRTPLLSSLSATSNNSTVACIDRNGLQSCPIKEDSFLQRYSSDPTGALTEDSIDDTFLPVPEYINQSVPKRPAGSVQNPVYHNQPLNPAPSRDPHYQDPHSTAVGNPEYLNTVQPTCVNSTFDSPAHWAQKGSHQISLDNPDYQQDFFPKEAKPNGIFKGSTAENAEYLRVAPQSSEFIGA
protocol.details: Binding of mutant-EGFR (phage-displayed kinase competition binding)

Worked examples follow.
{"smiles": "Clc1ccc(Sc2ncnc3c2[nH]c2ccccc23)cc1Cl", "Kd": "< 100 nM"}
{"smiles": "Oc1ccc(-c2cc3c(Sc4ccccc4)ncnc3[nH]2)cc1", "Kd": "< 100 nM"}

Here is another molecule to look at.
Input: Name the reported Kd value associated with the molecule "Oc1ccc(-c2cc3c(Oc4cccc(Br)c4)ncnc3[nH]2)cc1"
Output: < 100 nM
